B1: CPEB3 Ribozyme (parent)
chain: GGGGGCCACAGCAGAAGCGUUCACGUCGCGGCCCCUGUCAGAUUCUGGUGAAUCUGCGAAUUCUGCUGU

Variants of: B1
Experiment: self-cleavage, relative activity (ratio to wild type); higher = more cleavage; co-transcriptional
Class True: self-cleavage at least 0.2. Class False: self-cleavage below 0.2.

| residue-change | assigned-label |
| --- | --- |
| C22A A40C | True |
| A8G A59U | True |
| G41C U44C | True |
| G5A C27A | False |
| G14C G31U | False |
| A42G G50U | True |
| G14U C32A | True |
| U49C G58U | True |
| U21G G58U | True |
| C33U U53G | True |
| A15G A60C | True |
| C18U U49G | True |
| G41A G56C | True |
| C12U G68A | True |
| U21C G41A | True |
| G5A G47C | True |
| C18A G37A | False |
| U20G A52C | False |
| A15C C66U | True |
| A40U C45G | True |
| G30U C34U | True |
| G25C C39U | False |
| A16U G37A | False |
| C35U U49C | True |
| U43A G65A | True |
| C6A A51C | True |
| G1U C57U | False |
| G1U U44G | False |
| G1A C6G | False |
| G1A A13G | False |
| U36A G50C | True |
| G17A U38C | True |
| A15C U20C | True |
| C18A A51G | True |
| U44A G47C | True |
| G41C U61C | True |
| G4A C22G | False |
| G14A U20G | False |
| G3U U44A | False |
| G11A U36G | False |
| G5C C24U | False |
| G19C C34G | False |
| G11A A60U | True |
| U38G G47A | True |
| G11A U38C | True |
